Recorded pIC50 values for a group of substances are listed next.
# studyTarget: Angiotensin Converting Enzyme (ACE) from rabbit lung (Oryctolagus cuniculus)
# Construct: Angiotensin Converting Enzyme (ACE) from rabbit lung; purchased Sigma-Aldrich (St. Louis, MO, USA); host or cells: rabbit lung (tissue-derived)
# Sequence (P12822 34-1310): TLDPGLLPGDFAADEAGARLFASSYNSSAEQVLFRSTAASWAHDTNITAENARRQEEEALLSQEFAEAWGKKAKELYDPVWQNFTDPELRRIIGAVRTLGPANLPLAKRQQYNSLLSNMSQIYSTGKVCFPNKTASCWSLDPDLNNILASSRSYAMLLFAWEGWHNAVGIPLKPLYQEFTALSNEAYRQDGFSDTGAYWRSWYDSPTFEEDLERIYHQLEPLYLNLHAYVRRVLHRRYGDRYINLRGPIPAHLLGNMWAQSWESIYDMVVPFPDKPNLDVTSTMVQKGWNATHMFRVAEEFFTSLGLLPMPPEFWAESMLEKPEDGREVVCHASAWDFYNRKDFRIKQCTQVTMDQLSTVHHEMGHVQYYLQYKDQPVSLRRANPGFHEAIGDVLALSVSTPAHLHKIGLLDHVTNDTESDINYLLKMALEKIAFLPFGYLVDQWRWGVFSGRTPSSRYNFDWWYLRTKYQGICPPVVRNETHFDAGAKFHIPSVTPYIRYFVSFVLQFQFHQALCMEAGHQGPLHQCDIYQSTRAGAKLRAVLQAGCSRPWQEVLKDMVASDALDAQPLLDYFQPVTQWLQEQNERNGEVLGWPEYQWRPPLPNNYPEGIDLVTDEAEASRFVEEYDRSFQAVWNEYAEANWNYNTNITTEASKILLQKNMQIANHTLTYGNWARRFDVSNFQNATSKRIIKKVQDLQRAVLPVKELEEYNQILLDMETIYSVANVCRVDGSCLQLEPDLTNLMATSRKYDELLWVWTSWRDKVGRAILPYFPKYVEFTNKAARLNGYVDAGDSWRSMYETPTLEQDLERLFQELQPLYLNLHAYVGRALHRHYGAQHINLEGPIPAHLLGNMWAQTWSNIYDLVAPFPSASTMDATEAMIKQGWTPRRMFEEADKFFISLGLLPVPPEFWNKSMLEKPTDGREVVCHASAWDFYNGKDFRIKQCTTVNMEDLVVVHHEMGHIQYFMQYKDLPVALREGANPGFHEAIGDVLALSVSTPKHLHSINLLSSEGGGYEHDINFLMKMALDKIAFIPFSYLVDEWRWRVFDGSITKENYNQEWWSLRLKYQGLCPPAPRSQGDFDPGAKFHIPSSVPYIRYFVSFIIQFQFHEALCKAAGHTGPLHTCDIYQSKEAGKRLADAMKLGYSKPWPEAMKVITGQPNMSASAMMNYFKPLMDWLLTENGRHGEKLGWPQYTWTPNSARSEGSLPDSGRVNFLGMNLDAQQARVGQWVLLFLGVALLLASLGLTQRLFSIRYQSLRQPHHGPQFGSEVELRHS
# procedureText: ACE inhibitory activity assay (HHL substrate, OPA fluorescence)
# Format: biochemical
# measurementParameters: chemically synthesized peptides identified from peak 4; mean ± SD, n = 3; read-out: IC50 Value inhibiting ACE activity
Ends that are not written are not given here.
Value format note: pIC50 is -log10 of concentration (mol/L); just state the number.

Solved cases below.
> print(dat)
      substance  endpointvalue
1  AGALGDSVTVTR           4.16
2      PNYHPSPR           4.72
3      HIGNILSL           4.44

Name the reported pIC50 value associated with the substance LAGNPAGR
3.83

Name the reported pIC50 value associated with the substance FMPGVPGPIQR
4.96

Name the reported pIC50 value associated with the substance MPGVPGPIQR
4.26

Name the reported pIC50 value associated with the substance INTLSGR [INTLSGR]
3.82

Name the reported pIC50 value associated with the substance AFPAGAAHW
4.54

Name the reported pIC50 value associated with the substance HIITLGR [HIITLGR]
4.13

Name the reported pIC50 value associated with the substance GHIITVAR
5.44

Entry source: paper PMC7037947
